# TARGET UNDER TEST: T1, purified recombinant IFNAR-1 extracellular fragment (human, UniProt P17181 28-436)
# T1 construct: extracellular domain; also called soluble IFNAR-1; soluble IFNAR
# T1 sequence (looked up): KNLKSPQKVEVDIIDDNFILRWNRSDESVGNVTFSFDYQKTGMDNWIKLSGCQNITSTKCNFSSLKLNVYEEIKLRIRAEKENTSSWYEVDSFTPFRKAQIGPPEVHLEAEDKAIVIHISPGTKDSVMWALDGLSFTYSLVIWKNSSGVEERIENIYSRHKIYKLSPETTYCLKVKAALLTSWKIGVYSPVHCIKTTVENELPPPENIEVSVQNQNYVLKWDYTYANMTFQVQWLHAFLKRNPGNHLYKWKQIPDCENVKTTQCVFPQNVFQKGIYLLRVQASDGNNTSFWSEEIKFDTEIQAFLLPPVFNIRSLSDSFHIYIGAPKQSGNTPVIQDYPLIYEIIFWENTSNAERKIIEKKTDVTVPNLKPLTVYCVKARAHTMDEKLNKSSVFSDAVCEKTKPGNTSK
# ASSAY EXPLANATION: Biacore, antibody on immobilized soluble IFNAR-1, maximal response, mean of four
MEASURED METRIC: % response relative to H3K1 (%)
Dear colleague, please return just the value in %, with no unit written.

Some solved entries appear below for comparison.
DI M3-B heavy chain with DI K1 light chain (antibody, V domains shown, also called DI M3-B DI K1) VH: EVQLLESGGGLVQPGGSLRLSCAASGFTMSTSGMGIGWIRQTPGKGLEWVAHIWWDDDKYYNPSLKARFTISRDTSKNTLYLQMNSLRAEDTAVYYCARNYYPYDAWFDYWGQGTLVTVS VL: DIQMTQSPSSLSASVGDRATITCSASSSINSNHLHWYLQKPGKAPKALIYRTSILASGIPSRFSGSGSGTDFTLTISSLQPEDTATYYCQQGSNIPFTFGQGTKVEIKR : 11
M3 heavy chain with DI K1-C light chain (antibody, V domains shown, also called M3 DI K1-C) VH: EVQLLESGGGLVQPGGSLRLSCAFSGFTLSTSGMGIGWVRQAPGKGLEWVAHIWWDDDKYYNPSLKSRFTISRDTSKNTVYLQMNSLRAEDTAVYYCARNYYPYDAWFDYWGQGTLVTVS VL: DIQMTQSPSSLSASVGDRVTITCSASTSINSNHLHWYLQKPGKAPKALIYRTSILASGIPSRFSGSGSGTDFTLTISSLQPEDTATYYCQQGSNIPFTFGQGTKVEIKR : 17

For the binder shown here, DI M3-B heavy chain with DI K1-C light chain (antibody, V domains shown, also called DI M3-B DI K1-C) VH: EVQLLESGGGLVQPGGSLRLSCAASGFTMSTSGMGIGWIRQTPGKGLEWVAHIWWDDDKYYNPSLKARFTISRDTSKNTLYLQMNSLRAEDTAVYYCARNYYPYDAWFDYWGQGTLVTVS VL: DIQMTQSPSSLSASVGDRVTITCSASTSINSNHLHWYLQKPGKAPKALIYRTSILASGIPSRFSGSGSGTDFTLTISSLQPEDTATYYCQQGSNIPFTFGQGTKVEIKR , give the reported % response relative to H3K1.
9

For the binder shown here, M3 heavy chain with DI K1 light chain (antibody, human IgG4, V domains shown, also called M3 DI K1) VH: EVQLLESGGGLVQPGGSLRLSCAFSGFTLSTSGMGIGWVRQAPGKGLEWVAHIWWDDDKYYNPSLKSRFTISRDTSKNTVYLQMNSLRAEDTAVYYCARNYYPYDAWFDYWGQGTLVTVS VL: DIQMTQSPSSLSASVGDRATITCSASSSINSNHLHWYLQKPGKAPKALIYRTSILASGIPSRFSGSGSGTDFTLTISSLQPEDTATYYCQQGSNIPFTFGQGTKVEIKR , give the reported % response relative to H3K1.
25

For the binder shown here, DI M3 heavy chain with K1-C light chain (antibody, V domains shown, also called DI M3 K1-C) VH: EVQLLESGGGLVQPGGSLRLSCAASGFTMSTSGMGIGWIRQTPGKGLEWVAHIWWDDDKYYNPSLKSRFTISKDTSKNTLYLQMNSLRAEDTAVYYCARNYYPYDAWFDYWGQGTLVTVS VL: DIQMTQSPSSLSASVGDRVTITCSASTSINSNHLHWYQQKPGKAPKLLIYRTSILASGVPSRFSGSGSGTSFTLTISSLQPEDFATYYCQQGSNIPFTFGQGTKVEIKR , give the reported % response relative to H3K1.
96
